Readings of pKi for the listed molecules
target: Serine protease 1 (Bos taurus, UniProt P00760)
Sequence (P00760 whole entry): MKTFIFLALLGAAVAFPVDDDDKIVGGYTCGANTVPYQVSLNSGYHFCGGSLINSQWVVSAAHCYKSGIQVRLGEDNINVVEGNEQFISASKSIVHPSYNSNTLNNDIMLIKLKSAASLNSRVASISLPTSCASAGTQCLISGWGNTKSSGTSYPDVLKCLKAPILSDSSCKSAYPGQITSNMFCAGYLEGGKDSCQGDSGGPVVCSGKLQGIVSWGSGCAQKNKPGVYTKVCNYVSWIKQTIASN
Reminder that pKi means the negative base-10 logarithm of the concentration expressed in mol/L.

1. Cc1cc(I)c(O)c(C(=O)Nc2ccc(C(=N)N)cc2)c1    6.21
2. Cc1cc(Br)c(O)c(C(=O)Nc2ccc(C(=N)N)cc2)c1    6.55

Now look at this one.
Query block: Query (molecule): `N=C(N)c1ccc2[nH]c(-c3cccc(-c4ccccc4)c3O)cc2c1` ; field requested: pKi
Result block: 6.89

* * *

Coagulation factor X (Homo sapiens) log10 of Ki data
Sequence (P00742 41-179 limits assumed): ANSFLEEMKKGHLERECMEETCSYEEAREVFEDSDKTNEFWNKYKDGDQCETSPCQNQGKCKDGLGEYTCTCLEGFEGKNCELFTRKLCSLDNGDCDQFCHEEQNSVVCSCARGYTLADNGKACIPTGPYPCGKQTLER
Sequence (P00742 235-488 limits assumed): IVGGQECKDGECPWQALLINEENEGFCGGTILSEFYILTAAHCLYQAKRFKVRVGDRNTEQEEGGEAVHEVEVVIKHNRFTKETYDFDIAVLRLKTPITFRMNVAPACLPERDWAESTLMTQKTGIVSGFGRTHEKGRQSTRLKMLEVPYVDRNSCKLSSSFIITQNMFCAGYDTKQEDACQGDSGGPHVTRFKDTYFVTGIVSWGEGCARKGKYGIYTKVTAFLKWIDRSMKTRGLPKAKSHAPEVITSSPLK
Scale: log10; quantity: Ki; unit before log: µM

Solved entries (count: 7):
1) N=C(N)c1ccc(NC(=O)c2ccccc2O)cc1    1.38
2) N=C(N)c1cc2cc(-c3cc(Cl)cc(Cl)c3O)[nH]c2cc1Cl    0.67
3) N=C(N)c1ccc2nc(-c3cccc(OC4CCCC4)c3O)[nH]c2c1    0.15
4) Cc1cc(Br)c(O)c(C(=O)Nc2ccc(C(=N)N)cc2)c1    -0.39
5) [H]/N=C(/N)c1ccc(NC(=O)c2cc(C)cc(I)c2O)cc1Cl    2.04
6) Cc1cc(I)c(O)c(C(=O)Nc2ccc(C(=N)N)cc2)c1    0.34
7) Cc1cc(I)c(O)c(C(=O)Nc2ccc(C(=N)N)c(F)c2)c1    -0.30

Now look at this one.
Query block: Query (molecule): `N=C(N)c1ccc2[nH]c(-c3cc(Cl)cc(Cl)c3O)cc2c1` ; field requested: log10 of Ki
Result block: -1.15

* * *

UniProtKB P00747 pKi data
Sequence (P00747 97-580 limits assumed): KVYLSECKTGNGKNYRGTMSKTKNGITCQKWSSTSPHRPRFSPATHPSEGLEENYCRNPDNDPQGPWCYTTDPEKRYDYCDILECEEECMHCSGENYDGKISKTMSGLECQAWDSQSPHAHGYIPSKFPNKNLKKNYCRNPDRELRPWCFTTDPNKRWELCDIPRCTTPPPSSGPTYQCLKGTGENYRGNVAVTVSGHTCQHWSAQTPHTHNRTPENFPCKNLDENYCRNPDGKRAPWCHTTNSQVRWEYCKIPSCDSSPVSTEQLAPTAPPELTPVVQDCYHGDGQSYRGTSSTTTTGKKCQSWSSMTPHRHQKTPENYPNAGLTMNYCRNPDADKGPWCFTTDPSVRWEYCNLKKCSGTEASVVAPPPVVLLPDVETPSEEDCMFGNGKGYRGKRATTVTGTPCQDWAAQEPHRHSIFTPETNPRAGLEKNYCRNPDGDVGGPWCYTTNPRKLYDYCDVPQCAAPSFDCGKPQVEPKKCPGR
Sequence (P00747 581-810 limits assumed): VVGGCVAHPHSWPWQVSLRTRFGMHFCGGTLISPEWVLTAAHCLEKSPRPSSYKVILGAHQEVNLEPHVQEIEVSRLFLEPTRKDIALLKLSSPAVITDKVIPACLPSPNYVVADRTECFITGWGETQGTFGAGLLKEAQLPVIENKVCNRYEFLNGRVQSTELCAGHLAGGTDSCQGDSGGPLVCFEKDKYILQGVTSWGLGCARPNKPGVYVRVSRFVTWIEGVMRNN
Reminder that pKi means the negative base-10 logarithm of the concentration expressed in mol/L.

Solved entries (count: 3):
1. N=C(N)c1ccc2nc(-c3cccc(OC4CCCC4)c3O)[nH]c2c1 [CA-06]    6.22
2. N=C(N)c1cc2cc(-c3cc(Cl)cc(Cl)c3O)[nH]c2cc1Cl    5.72
3. Cc1cc(I)c(O)c(C(=O)Nc2ccc(C(=N)N)c(F)c2)c1    5.26

Query block: Query (molecule): `Cc1cc(Br)c(O)c(C(=O)Nc2ccc(C(=N)N)cc2)c1` ; field requested: pKi
Result block: 5.36

Query block: Now consider `N=C(N)c1ccc2[nH]c(-c3cc(Cl)cc(Cl)c3O)cc2c1` .
Result block: 5.82

Query block: Now consider `N=C(N)c1ccc(NC(=O)c2ccccc2O)cc1` .
Result block: 5.18

Query block: Now consider `Cc1cc(I)c(O)c(C(=O)Nc2ccc(C(=N)N)cc2)c1` .
Result block: 5.49

* * *

Readings of log10(Ki) for the listed molecules
biological target: Urokinase-type plasminogen activator (Homo sapiens); experiment: Enzyme Assay and Determination of the Inhibition Constants
Scale: log10; quantity: Ki; unit before log: nM

1. CC(C)COc1cccc(-c2nc3cc(F)c(C(=N)N)cc3[nH]2)c1O    3.30
2. C[C@H]1CCCC[C@@H]1Oc1cccc(-c2cc3cc(C(=N)N)c(F)cc3[nH]2)c1O    2.15
3. N=C(N)c1cc2nc(-c3cccc(-c4ccccc4)c3O)[nH]c2cc1F    2.74
4. N=C(N)c1cc2[nH]c(-c3cccc(-c4ccccc4)c3O)nc2cc1Cl    3.93

Query block: Query (molecule): `CC(C)COc1cccc(-c2nc3ccc(C(=N)N)cc3[nH]2)c1O` ; field requested: log10(Ki)
Result block: 2.59

Query block: Now consider `CC(C)COc1cccc(-c2nc3cc(Cl)c(C(=N)N)cc3[nH]2)c1O` .
Result block: 3.81
